# Test system: CCRIS mutagenicity, Ames/micronucleus/aberration tests
# Procedure summary: CCRIS mutagenicity studies
# Condition notes: Test System: AMES SALMONELLA TYPHIMURIUM; Strain/Indicator: TA1538; Metabolic Activation: RAT, LIVER, S-9; Method: STANDARD PLATE
Active and inactive are the calls of the source. The rule behind the calls is not given here.
Could you please pick one outcome from this set? True = active, False = inactive

CC1=C[C@H](O)[C@H]2C[C@@H]1C2(C)C; False
Nc1ccc2cc3ccc(N)cc3nc2c1; True
C[C@H]1CCCC(=O)CCCCCc2cc(O)cc(O)c2C(=O)O1; False
COc1cc(-c2ccc(N=C=O)c(OC)c2)ccc1N=C=O; True

What was the test verdict on CCOc1ccc(NC(C)=O)cc1N ?
True

// same read-out, input: CC(=O)c1ccc(S(=O)(=O)NC(=O)NC2CCCCC2)cc1
False

Data provenance: PubChem BioAssay AID1259407
